Tested system: human GLP-1 receptor (GLP-1R) (human, UniProt P43220 24-463)
Method summary: cell-based or functional assay
Endpoint label: hGLP1R cAMP Rel EC50 (nM)
Hi! Could you send only the number? It should be in nM, unit omitted.

INSERT INTO measurements (binder, endpoint_label, result_unit, measurement) VALUES
  ('XXEGTFTSDYSIXLDXKAQXEFIEYLIAGGPSSGAPPPS (D-Tyr1, Aib2, αMeL13, Orn16, (2-[2-(2-Amino-ethoxy)-ethoxy]-acetyl)2-(γ-Glu)-CO-(CH2)18-CO2H on K17, Aib20, C-terminal NH2) [Example 349]', 'hGLP1R cAMP Rel EC50', 'nM', 0.121);

// fetch hGLP1R cAMP Rel EC50 given entry YXEGTFTSDYSILLDKKAQAAFIEYLIEGGPSSGAPPPS (Aib2, (2-[2-(2-Amino-ethoxy)-ethoxy]-acetyl)2-(γ-Glu)-CO-(CH2)18-CO2H on K17, C-terminal NH2) [Example 253]
0.109

// fetch hGLP1R cAMP Rel EC50 given entry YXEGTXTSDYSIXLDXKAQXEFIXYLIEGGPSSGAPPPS (Aib2, αMeF(2F)6, Nle13, Orn16, (2-[2-(2-Amino-ethoxy)-ethoxy]-acetyl)2-(γ-Glu)-CO-(CH2)16-CO2H on K17, Aib20, D-Glu24, C-terminal NH2) [Example 249]
0.0446

// fetch hGLP1R cAMP Rel EC50 given entry YXEGTFTSDYSILLDKKAQXAFIEYLIEGGPSSGAPPPS (Aib2, (2-[2-(2-Amino-ethoxy)-ethoxy]-acetyl)2-(γ-Glu)-CO-(CH2)16-CO2H on K17, Aib20, C-terminal NH2) [Example 315]
0.0651
